- System: DU-4475
- Condition Description: 72 h
Field 'label' (enum: TRUE / FALSE). Set to TRUE when EC50, CellTiter-Blue viability is strictly under 800 nM; else FALSE.

Structure Smiles String	Class Label
C#Cc1cccc(Nc2ncnc3cc(OC)c(OCCCCCCC(=O)NO)cc23)c1	FALSE
COc1ncc(-c2ccc3nccc(-c4ccnnc4)c3c2)cc1NS(=O)(=O)c1ccc(F)cc1F	TRUE
COC(=O)C[C@](O)(CCCC(C)(C)O)C(=O)O[C@@H]1C(OC)=C[C@]23CCCN2CCc2cc4c(cc2[C@H]13)OCO4	TRUE
C[C@@]1(C(=O)Nc2ccc(F)nc2)CCCN1c1nc(Nc2cc(C3CC3)n[nH]2)c2cccn2n1	FALSE
COc1cccc2c1C(=O)c1c(O)c3c(c(O)c1C2=O)C[C@@](O)(C(C)=O)C[C@@H]3O[C@H]1C[C@H](N)[C@H](O)[C@H](C)O1	TRUE
